Target: Alcohol dehydrogenase (Equus caballus) (UniProt P00327+P00328)
Test: The compound was tested for the ability to inactivate horse liver alcohol dehydrogenase in the absence of NAD+k
Just a reminder that ties go to false: only Rate constant strictly below 0.7 M⁻¹ s⁻¹ counts as true.

[[record]]
mol = "NC(=O)CBr"
class_assignment = "true"

[[record]]
mol = "O=C(O)CCCc1ccc(NC(=O)CBr)cc1"
class_assignment = "false"

[[record]]
mol = "O=C(O)CCCCCCNC(=O)CBr"
class_assignment = "true"

[[record]]
mol = "O=C(O)CBr"
class_assignment = "true"

[[record]]
mol = "O=C(O)CCCCCCCCNC(=O)CBr"
class_assignment = "true"

[[record]]
mol = "O=C(CBr)Nc1ccc(Oc2ccc(C(=O)O)cc2)cc1"
class_assignment = "false"

[[record]]
mol = "O=C(O)CCCCCCCNC(=O)CBr"
class_assignment = "true"

[[record]]
mol = "O=C(O)CCCCCCCCCCCNC(=O)CBr"
class_assignment = "false"

[[record]]
mol = "O=C(CBr)Nc1ccc(-c2ccc(C(=O)O)cc2)cc1"
class_assignment = "false"

